All figures here come from ChEMBL document CHEMBL1151008.

# Target: Adenosylhomocysteinase (Rattus norvegicus, UniProt P10760)
# Sequence (P10760 whole entry): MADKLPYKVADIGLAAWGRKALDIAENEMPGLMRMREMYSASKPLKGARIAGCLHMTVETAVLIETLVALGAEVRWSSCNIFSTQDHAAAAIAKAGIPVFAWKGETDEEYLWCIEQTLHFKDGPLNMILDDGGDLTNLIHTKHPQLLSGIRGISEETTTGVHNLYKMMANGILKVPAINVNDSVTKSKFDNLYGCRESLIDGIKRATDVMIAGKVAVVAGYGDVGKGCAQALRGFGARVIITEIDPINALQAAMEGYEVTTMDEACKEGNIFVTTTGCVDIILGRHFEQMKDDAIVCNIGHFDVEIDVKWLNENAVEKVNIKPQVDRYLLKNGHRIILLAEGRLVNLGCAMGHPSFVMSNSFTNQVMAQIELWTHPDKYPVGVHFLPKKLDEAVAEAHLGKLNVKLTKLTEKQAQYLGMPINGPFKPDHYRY
# Measurement Protocol: Compound was tested for its inhibitory activity against recombinant rat liver S-adenosyl-homocysteine hydrolase
pKi: −log10 of the molar value.
Observable: pKi

Please review the entries below; each comes with its answer.
QUERY: Requested field: pKi. Item: Nc1ncnc2c1ncn2[C@@H]1C/C(=C/F)[C@@H](O)[C@H]1O
RESULT: 6.95

QUERY: Requested field: pKi. Item: Nc1ncnc2c1ncn2[C@@H]1O/C(=C/F)[C@@H](O)[C@H]1O
RESULT: 7.40

a. Nc1ncnc2c1ncn2[C@@H]1O/C(=C\F)[C@@H](O)[C@H]1O
b. Nc1ncnc2c1ncn2[C@@H]1C/C(=C\F)[C@@H](O)[C@H]1O
QUERY: Lab log: flag the item ( a or b ) with the smaller pKi figure. Return value: the label identifying the chosen record.
RESULT: b
